- systemName: P2X purinoceptor 3 (Rattus norvegicus) (UniProt P49654)
- Sequence (P49654 whole entry): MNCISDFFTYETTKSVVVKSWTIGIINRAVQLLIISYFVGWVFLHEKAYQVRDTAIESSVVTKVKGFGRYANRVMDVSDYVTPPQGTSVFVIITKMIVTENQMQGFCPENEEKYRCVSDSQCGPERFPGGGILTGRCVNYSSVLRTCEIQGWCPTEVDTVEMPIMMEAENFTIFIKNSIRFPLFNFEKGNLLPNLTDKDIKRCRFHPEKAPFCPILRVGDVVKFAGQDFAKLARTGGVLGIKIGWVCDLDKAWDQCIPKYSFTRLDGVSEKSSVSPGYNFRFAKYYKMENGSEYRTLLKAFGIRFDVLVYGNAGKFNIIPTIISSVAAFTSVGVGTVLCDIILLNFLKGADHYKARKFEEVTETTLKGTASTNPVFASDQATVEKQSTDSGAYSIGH
- assayMethodText: Antagonist activity at rat recombinant P2X3 receptor expressed in HEK293T cells assessed as desensitization of alpha,beta-methyleneATP-induced current at 100 uM after 20 secs by patch clamp technique
- Assay type: cell-based
- testSettings: HEK-293T
Returns the class for an entry based on its inhibition. Class ranges: small value = under 30%, mid value = from 30% up to 80%, large value = 80% and over

smiles: COc1cc(Cn2cnc3nc(N)nc(Cl)c32)c(C(C)C)cc1OC
assignedLabel: small value
--
smiles: CNc1nc(N)nc2c1ncn2Cc1cc(I)c(OC)cc1C(C)C
assignedLabel: large value
--
smiles: COc1cc(Cn2cnc3nc(N)nc(N)c32)c(C(C)C)cc1OC
assignedLabel: small value
--
smiles: COc1cc(Cn2cnc3c(Cl)nc(N)nc32)c(C(C)C)cc1OC
assignedLabel: small value
--
smiles: COc1cc(C(C)C)c(Cn2cnc3c(NC4CCCC4)nc(N)nc32)cc1I
assignedLabel: mid value
--
smiles: COc1cc(C(C)C)c(Cn2cnc3c(N)nc(N)nc32)cc1I
assignedLabel: large value
--
smiles: CNc1nc(N)nc2c1ncn2Cc1cc(OC)c(OC)cc1C(C)C
assignedLabel: mid value
--
smiles: COc1cc(C(C)C)c(Cn2cnc3c(OC)nc(N)nc32)cc1I
assignedLabel: mid value

* * *

// values below are reported inhibition
- systemName: UniProtKB P49654
- assayMethodText: Antagonist activity at rat recombinant P2X3 receptor expressed in HEK293T cells assessed as desensitization of alpha,beta-methyleneATP-induced current at 1 uM after 20 secs by patch clamp technique
- Assay type: cell-based
- testSettings: HEK-293T

smiles: COc1cc(C(C)C)c(Cn2cnc3c(N)nc(N)nc32)cc1I
systemName: UniProtKB P49654
inhibition: 35%
--
smiles: CNc1nc(N)nc2c1ncn2Cc1cc(I)c(OC)cc1C(C)C
systemName: UniProtKB P49654
inhibition: 41%
--
smiles: COc1cc(Cn2cnc3c(N)nc(N)nc32)c(C(C)C)cc1OC
systemName: UniProtKB P49654
inhibition: 8%
--
smiles: COc1cc(C(C)C)c(Cn2cnc3c(NC4CCCC4)nc(N)nc32)cc1I
systemName: UniProtKB P49654
inhibition: 51%

* * *

- systemName: P2X purinoceptor 3 (Rattus norvegicus)
- assayMethodText: Antagonist activity at rat recombinant P2X3 receptor expressed in HEK293T cells assessed as desensitization of alpha,beta-methyleneATP-induced current at 10 uM after 20 secs by patch clamp technique
- Type: cell-based
- testSettings: HEK-293T
Each entry gets Not fulfilled if its inhibition stays under 40%, and Fulfilled if its inhibition is 40% or above.

smiles: COc1cc(C(C)C)c(Cn2cnc3nc(N)nc(N)c32)cc1I
assignedLabel: Fulfilled
//
smiles: CNc1nc(N)nc2c1ncn2Cc1cc(I)c(OC)cc1C(C)C
assignedLabel: Fulfilled
//
smiles: COc1cc(C(C)C)c(Cn2cnc3c(N)nc(N)nc32)cc1I
assignedLabel: Fulfilled
//
smiles: COc1cc(Cn2cnc3c(N)nc(N)nc32)c(C(C)C)cc1OC
assignedLabel: Not fulfilled
//
smiles: COc1cc(C(C)C)c(Cn2cnc3c(NC4CCCC4)nc(N)nc32)cc1I
assignedLabel: Fulfilled
